Here the recorded Kd is given for each entry.
- target.entity: T1, PUF4 RNA-binding domain (Saccharomyces cerevisiae, UniProt P25339 537-888)
- T1 sequence: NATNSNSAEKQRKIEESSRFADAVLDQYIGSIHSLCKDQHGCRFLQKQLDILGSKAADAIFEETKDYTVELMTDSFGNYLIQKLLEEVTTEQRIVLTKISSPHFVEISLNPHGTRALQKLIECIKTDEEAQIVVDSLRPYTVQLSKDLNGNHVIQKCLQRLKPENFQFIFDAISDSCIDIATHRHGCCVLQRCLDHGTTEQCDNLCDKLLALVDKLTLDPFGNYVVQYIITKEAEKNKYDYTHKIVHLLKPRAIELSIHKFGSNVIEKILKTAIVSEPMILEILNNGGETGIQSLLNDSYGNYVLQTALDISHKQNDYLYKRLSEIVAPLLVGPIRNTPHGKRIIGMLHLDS
- method: Mg; RNA-MaP; 20 mM Na-HEPES pH 7.4, 30 mM KOAc, 0.75 mM MgCl2, 0.1% Tween-20, 5% glycerol, 0.1 mg/mL BSA, 2 mM DTT; 25 C; 0.0125-409.6 nM protein
- condition.parameters: tags: N-His6-TEV cleaved; C-SNAP kept, Cy3B-labelled; label: tethered on chip by stalled RNA polymerase
assay.readout: Kd (µM)

>  <binder>
UCUCUUUGUAAGCUCCUCUCUU (ssRNA) [Ic_S1_P5E.1_K5.1_C5.1_H5.1_A5.1_[T5A]_[T6G]_[A7C]_F5.1_[T9C]_[A10C]_T5.1]

>  <prefix.operator>
=

>  <recorded.value>
1.5

$$$$
>  <binder>
UCUCUUUGUAUCCUGUCUCUU (ssRNA) [Ic_S1_P4E.1_K4.1_C4.1_H4.1_A4.1_[A6C]_[T7C]_F4.1_[A9G]_T4.1]

>  <prefix.operator>
=

>  <recorded.value>
0.0826

$$$$
>  <binder>
Ib_S2_P5E.1_K5.1_C5.1_H5.1_[T1A]_A5.1_[A7G]_F5.1_T5.1 (ssRNA) RNA: UUUGAUUAAUAUGAUAUCGUUCUUUCUAGUAUUGUUAUUCUUUCUCGAUAUCAUAUUAAUCUUU

>  <prefix.operator>
>

>  <recorded.value>
2.3

$$$$
